Test system: UACC-62 melanoma
Assay: NCI-60 one-dose screen, 48 h
Condition: 10 µM unless noted
About 83,000 compounds went through this panel and 20% of them were active in at least one assay; those are over-represented in the sample as a whole. Activity calls are given as the source filed them. The calls were made as follows: active = growth percent below 10; inactive = the rest.
Please answer using one outcome listed in TRUE (active), FALSE (inactive)

Previously resolved entries follow.
                                   compound  answer_label
0  Cc1cc(Cl)ccc1Nc1nc(C(F)(F)F)ccc1C(=O)N/N=C/c1ccc([N+](=O)[O-])cc1         FALSE
1  O=C(Cn1c(=O)sc2nc3ccccc3nc21)Nc1ncc(Cc2cccc(Cl)c2Cl)s1         FALSE
2  Cn1cc(-c2nonc2-c2c[nH]c3ccc(Br)cc23)c2cc(Br)ccc21         FALSE
3  Cn1c(-c2ccc(Br)cc2)c(O)c(=O)c2c(F)cccc21         FALSE
4  Cc1ccc(/C=C2\CN(C(=O)OC(C)(C)C)C/C(=C\c3ccc(C)cc3)C2=O)cc1         FALSE
5  CCOC(=O)CSc1ncnc2c1c(-c1ccccc1)c(-c1ccccc1)n2-c1ccc(C)cc1         FALSE

q: Per the records of this test, what outcome belongs to O=C1/C(=C/c2ccc(Cl)cc2)COc2ccc(O)cc21 ?
a: FALSE

----------
Tested on: RXF 393 renal
Assay: NCI-60 one-dose screen, 48 h (100 = growth as untreated, 0 = no growth, -100 = all killed)
Condition: 10 µM unless noted
Compounds without any hit were thinned out: in the full panel of roughly 83,000, 20% have a hit.
Binned growth; ranges: lower bin: < 20%; middle bin: ≥ 20% and < 70%; upper bin: ≥ 70%

Previously resolved entries follow.
In [3]: df
Out[3]:
                                   molecule  answer_label
0   N=C(N)c1ccc(-c2ccc(-c3ccc(Cl)cc3)s2)nc1    middle bin
1  Cc1ccc(-c2nc(/C=C3/C(=O)Nc4ccccc43)c3ccccn23)cc1    middle bin

q: For this molecule, which bin applies? N#Cc1c(-c2ccc(Cl)cc2)nc(NN=Cc2cccc(O)c2)nc1N1CCOCC1
a: middle bin

q: For this molecule, which bin applies? Brc1ccc(-n2cc(-c3nn[nH]n3)c(-c3cccs3)n2)cc1
a: upper bin

q: For this molecule, which bin applies? CO[C@H]1/C=C(/C)CCC[C@H](C)[C@H](O)[C@@H](C)C(=O)C(C)(C)[C@@H](O)CC(=O)O[C@@H]1/C(C)=C/c1csc(C)n1
a: lower bin

q: For this molecule, which bin applies? COc1ccccc1NC(=O)Cn1cc(CN2CCN(c3ccnc4cc(Cl)ccc34)CC2)nn1
a: upper bin

q: For this molecule, which bin applies? C/C(Nc1ccc(Cl)c(Cl)c1)=C1\CCOC1=O
a: upper bin

----------
System: DU-145 prostate
Assay: NCI-60 one-dose screen, 48 h (100 = growth as untreated, 0 = no growth, -100 = all killed)
Condition: 10 µM unless noted
Protocol: Cells are grown in 96 well plates and exposed to the test compound for 48 hours. Compounds are tested at a single concentration, which is 10^-5 M for most compounds. The reported endpoint is percent growth (GI% or GIPRCNT), where numbers from 0 - 100% represent growth inhibition, and numbers from -100% - 0 represent cell death. For example, a value of 40 represents 60% growth inhibition. A value of 0 means no net growth occurred over the course of the experiment. […]
About 83,000 compounds went through this panel and 20% of them were active in at least one assay; those are over-represented in the sample as a whole.
Friendly reminder: growth below 40% is met, at or above is not met.

Previously resolved entries follow.
Compound	Tgt	Answer label
O=C1Nc2ccccc2[C@]12CC(c1ccccc1)=NN2	DU-145 prostate	not met
C=C(CNCCc1ccc(O)cc1)[C@@H]1CC[C@]2(CO)CC[C@]3(C)[C@H](CC[C@@H]4[C@@]5(C)CCC(NCCO)C(C)(C)[C@@H]5CC[C@]43C)[C@@H]12 (stereo partly drawn)	DU-145 prostate	met
Cc1c(-n2nnc(-c3nc4ccccc4s3)c2N)c(=O)n(-c2ccccc2)n1C	DU-145 prostate	not met
O=C1c2c(c3c4ccc(Br)cc4oc3c3[nH]c4ccccc4c23)C(=O)N1O	DU-145 prostate	met
CCCC(O)Cn1ncc(C(=O)OCC)c1NC(=O)NCc1ccccc1F (stereo not drawn)	DU-145 prostate	not met

q: Dear colleague, could you confirm whether growth of CC(=O)N1N=C(c2ccc(Nc3nc(Nc4ccc(Cl)cc4)nc(Nc4ccc(Cl)cc4)n3)cc2)CC1c1ccco1 (stereo not drawn) falls below 40%? Thanks.
a: not met

q: Dear colleague, could you confirm whether growth of CN(C)CCNC(=O)c1cccc(-c2cnc3ccc(-c4ccc5c(c4)OCO5)nn23)c1 falls below 40%? Thanks.
a: not met

q: Dear colleague, could you confirm whether growth of O=C(CSc1nc2sc3c(c2c(=O)n1-c1ccccc1)CCCCC3)N/N=C/c1ccc(F)cc1 falls below 40%? Thanks.
a: met

q: Dear colleague, could you confirm whether growth of CC[C@@H](C(=O)[C@@H](C)[C@@H](O)[C@H](C)[C@@H]1O[C@@H]([C@@H](CC)C(=O)NCCc2ccc(F)cc2)CC[C@@H]1C)C1O[C@]2(C=CC(=O)[C@]3(CC[C@@](C)([C@H]4CC[C@](O)(CC)[C@H](C)O4)O3)O2)[C@H](C)C[C@@H]1C (stereo partly drawn) falls below 40%? Thanks.
a: not met

q: Dear colleague, could you confirm whether growth of COc1cc2c(c(OC)c1OC)-c1ccc(OC)c(=O)cc1[C@@H](NC(=O)CCl)CC2 falls below 40%? Thanks.
a: met

q: Dear colleague, could you confirm whether growth of O=S(=O)(NCCCNc1nccc(-c2c(-c3ccc(F)c(O)c3)nc3occn23)n1)c1ccccc1 falls below 40%? Thanks.
a: not met

q: Dear colleague, could you confirm whether growth of Cc1oc(-c2ccc(Cl)cc2)nc1/C=C/C(=O)c1ccccc1 falls below 40%? Thanks.
a: not met

q: Dear colleague, could you confirm whether growth of Cc1ccc(/C=C2\CN(C(=O)OC(C)(C)C)C/C(=C\c3ccc(C)cc3)C2=O)cc1 falls below 40%? Thanks.
a: met

q: Dear colleague, could you confirm whether growth of O=S(=O)(Nc1ccc(Cl)cc1)c1ccc(-c2cnc(C3CC3)o2)cc1 falls below 40%? Thanks.
a: met

q: Dear colleague, could you confirm whether growth of O=C(NNC(=O)c1ccc(-n2cc(-c3ccccc3)nn2)cc1)Nc1ccccc1 falls below 40%? Thanks.
a: not met

q: Dear colleague, could you confirm whether growth of Cn1c(-c2ccc(Br)cc2)c(O)c(=O)c2c(F)cccc21 falls below 40%? Thanks.
a: not met

q: Dear colleague, could you confirm whether growth of CC12CCC3c4ccccc4CCC3(CO1)C2 (stereo not drawn) falls below 40%? Thanks.
a: not met

q: Dear colleague, could you confirm whether growth of C=C1CC[C@@H]2[C@](C)(COC(C)=O)[C@H](OC(C)=O)CC[C@@]2(C)[C@@H]1CC(Sc1ccccc1)C1=CCOC1=O (stereo partly drawn) falls below 40%? Thanks.
a: met
